- target.or.system: Beta-2 adrenergic receptor (Homo sapiens) (UniProt P07550)
- Sequence (P07550 whole entry, looked up): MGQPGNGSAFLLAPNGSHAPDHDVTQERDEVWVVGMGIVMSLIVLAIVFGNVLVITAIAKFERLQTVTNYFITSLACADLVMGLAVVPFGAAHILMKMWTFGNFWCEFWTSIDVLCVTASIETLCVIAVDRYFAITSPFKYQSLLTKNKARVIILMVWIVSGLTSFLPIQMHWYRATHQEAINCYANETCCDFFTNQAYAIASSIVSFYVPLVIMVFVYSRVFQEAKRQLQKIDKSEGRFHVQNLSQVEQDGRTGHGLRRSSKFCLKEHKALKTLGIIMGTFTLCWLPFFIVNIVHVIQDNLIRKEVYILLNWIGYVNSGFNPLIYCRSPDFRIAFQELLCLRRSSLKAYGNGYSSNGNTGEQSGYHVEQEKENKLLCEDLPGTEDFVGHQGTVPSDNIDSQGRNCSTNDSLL
- protocol.summary: Adrenergic beta2 receptor (ADRB2) small molecule antagonists, cell-based qHTS assay (AID 1963592); also: nearly all actives have a fitted effect of over 50% in size
- details: CHO-ADRB2 cells, isoproterenol-stimulated cAMP HTRF ratio, 0.5 h; series mostly up to 92.4 µM
Results filed as inconclusive are left out. The source made the active and inactive calls. Calls follow the shape of the full dose curve.
quantity.name: outcome

Below, 4 molecules whose answers are already recorded.
INSERT INTO assay_data (chemical_smiles, val) VALUES
  ('NCCN', 'inactive'),
  ('NS(=O)(=O)O', 'inactive'),
  ('C=CC(=O)OCCC(=O)O', 'inactive'),
  ('CC1(C)OC[C@@H]2O[C@@]3(C(=O)O)OC(C)(C)O[C@H]3[C@@H]2O1', 'inactive');

Briefly, outcome measured for CCCCOC(=O)c1ccc(N)cc1 : inactive

outcome reading for c1ccc2c(c1)ccc1cc3c(ccc4ccccc43)cc12 : inactive

What the record says about CC(=O)[C@H]1CC[C@H]2[C@@H]3CC=C4C[C@@H](O)CC[C@]4(C)[C@H]3CC[C@]12C : outcome is inactive

outcome for Cc1ccc(C)c(C)c1 is inactive
